Test description: Genotoxicity in Salmonella typhimurium TA1535 harboring pSK1002 assessed as survival at 0.031 mg/ml in absence of Sprague-Dawley rat liver S9 fraction after by SOS/umu assay relative to control
Assay type: toxicity, organism-based
Test settings: salmonella enterica subsp. enterica serovar typhimurium, read-out: Survival
Answer each item with its documented viability at 0.031 mg/ml.
Write the number in % without appending the unit.

Would you mind telling me what viability at 0.031 mg/ml value was observed for COC(=O)c1ccc(C(O)CCN2CC=C(c3ccc(F)cc3)CC2)cc1 (centres undefined) ?
94.4

Tell me the measured viability at 0.031 mg/ml of Oc1ccc(C(O)CCN2CC=C(c3ccc(F)cc3)CC2)cc1 (centres undefined) , please.
105

Suppose we examine the compound O=[N+]([O-])c1ccccc1N1CCN(CCC(O)c2ccc(F)c3ccccc23)CC1 (centres undefined) ; what viability at 0.031 mg/ml value has been reported?
66.8

Bench note: what viability at 0.031 mg/ml did N#Cc1ccc(N2CCC(NCCC(O)c3ccc(F)c4ccccc34)CC2)c(C(F)(F)F)c1 (stereo in doubt; 72) show?
30.2

----------
Test description: Genotoxicity in Salmonella typhimurium TA1535 harboring pSK1002 assessed as umu gene induction at 0.001 mg/ml in absence of Sprague-Dawley rat liver S9 fraction after by SOS/umu assay relative to control
Format: toxicity, organism-based
Test settings: salmonella enterica subsp. enterica serovar typhimurium, read-out: FC
Task for the reader: assign each of the following compounds its reported fold induction at 0.001 mg/ml.
A bare number is all that is needed in reply.

I would be grateful if you could share the reported fold induction at 0.001 mg/ml for OC(CCN1CCN(c2ccc(F)cc2)CC1)c1ccc(F)c2ccccc12 (stereo not drawn) .
0.7

Need fold induction at 0.001 mg/ml of O=[N+]([O-])c1ccc(N2CCN(CCC(O)c3ccc(F)c4ccccc34)CC2)cc1 (stereo not drawn) , thanks.
0.5

// fold induction at 0.001 mg/ml lookup, key: N#Cc1ccc(N2CCC(NCCC(O)c3ccc(F)c4ccccc34)CC2)c(Cl)c1 (stereo not drawn)
1

Tell me the measured fold induction at 0.001 mg/ml of COc1ccccc1N1CCN(CCC(O)c2ccc(F)cc2)CC1 (stereo in doubt; 66) , please.
1.1

What does the data say about its fold induction at 0.001 mg/ml? Entry: OC(CCN1CC=C(c2ccc(F)cc2)CC1)c1ccc2c(c1)OCO2 (stereo not drawn)
0.5

Look up fold induction at 0.001 mg/ml for this compound: COC(=O)c1ccc(C(O)CCN2CC=C(c3ccc(F)cc3)CC2)cc1 (stereo not drawn)
0.7

Which value of fold induction at 0.001 mg/ml has been reported for COc1ccccc1C1=CCN(CCC(O)c2ccc(F)cc2)CC1 (stereo not drawn) in the records?
1

Given the entry COc1ccccc1C1=CCN(CCC(O)c2ccc(F)c3ccccc23)CC1 (stereo not drawn) , report its measured fold induction at 0.001 mg/ml.
0.9

Reported fold induction at 0.001 mg/ml, compound N#Cc1ccc(N2CCC(NCCC(O)c3ccc(F)c4ccccc34)CC2)c(C(F)(F)F)c1 (stereo in doubt; 72) : ____
1

Find the recorded fold induction at 0.001 mg/ml belonging to OC(CCN1CCN(C(c2ccccc2)c2ccccc2)CC1)c1ccc(Cl)cc1 (stereo not drawn) and report it.
1.1

fold induction at 0.001 mg/ml for O=[N+]([O-])c1ccccc1N1CCN(CCC(O)c2ccc(F)c3ccccc23)CC1 (stereo not drawn) ?
1.1

What value of measured fold induction at 0.001 mg/ml is listed for Oc1ccc(C(O)CCN2CC=C(c3ccc(F)cc3)CC2)cc1 (stereo not drawn) ?
1.2

Any idea what its fold induction at 0.001 mg/ml is? The compound is N#Cc1ccc(N2CCC(NCCC(O)c3ccc(F)c4ccccc34)CC2)c(Br)c1 (stereo not drawn)
1.3

Value lookup for fold induction at 0.001 mg/ml; key = OC(CCN1CCN(C(c2ccccc2)c2ccccc2)CC1)c1ccc(F)c(F)c1 (stereo not drawn)
0.6

State the recorded fold induction at 0.001 mg/ml for this entry: OC(CCN1CCN(C(c2ccccc2)c2ccccc2)CC1)c1ccc(F)cc1 (stereo not drawn)
1

Given the entry OC(CCN1CCN(C(c2ccccc2)c2ccccc2)CC1)c1ccc(F)c(Cl)c1 (stereo not drawn) , report its measured fold induction at 0.001 mg/ml.
1

So what's the measured fold induction at 0.001 mg/ml for this one? OC(CCN1CCN(c2ccccc2C(F)(F)F)CC1)c1ccc(F)cc1 (stereo not drawn)
0.9

I have this compound here, OC(CCN1CCN(C(c2ccccc2)c2ccccc2)CC1)c1ccc(F)c2ccccc12 (stereo not drawn) , and I need its recorded fold induction at 0.001 mg/ml.
0.6

Reported fold induction at 0.001 mg/ml for COc1ccccc1N1CCN(CCC(O)c2ccc(F)c3ccccc23)CC1 (stereo not drawn) : what is it?
1.3

What value of measured fold induction at 0.001 mg/ml is listed for Nc1ccc(N2CCC(NCCC(O)c3ccc(F)c4ccccc34)CC2)c(C(F)(F)F)c1 (stereo not drawn) ?
1.1

Data request, read-out fold induction at 0.001 mg/ml, for OC(CCN1CCN(C(c2ccccc2)c2ccccc2)CC1)c1ccc(Br)cc1 (stereo not drawn)
1

For OC(CCN1CCN(c2ccccc2C(F)(F)F)CC1)c1ccc(F)c2ccccc12 (stereo in doubt; 55) , what is its reported fold induction at 0.001 mg/ml?
0.7

Which value of fold induction at 0.001 mg/ml has been reported for N#Cc1ccc(C(O)CCN2CC=C(c3ccc(F)cc3)CC2)cc1 (stereo not drawn) in the records?
0.9

----------
Test description: Genotoxicity in Salmonella typhimurium TA1535 harboring pSK1002 assessed as survival at 0.031 mg/ml in absence of Sprague-Dawley rat liver S9 fraction after by SOS/umu assay relative to control
Type: toxicity, organism-based
Test settings: salmonella enterica subsp. enterica serovar typhimurium, read-out: Survival
API: label(entry) gives yes if the entry's viability at 0.031 mg/ml is strictly smaller than 50%; on equality or larger values it gives no.

Given the entry OC(CCN1CCN(c2ccccc2C(F)(F)F)CC1)c1ccc(F)cc1 (stereo not given) , would its reported viability at 0.031 mg/ml be below 50%?
no

Strictly below 50% in viability at 0.031 mg/ml? OC(CCN1CCN(c2ccc(F)cc2)CC1)c1ccc(F)c2ccccc12 (stereo not given)
no

Find out if reported viability at 0.031 mg/ml for OC(CCN1CC=C(c2ccc(F)cc2)CC1)c1ccc2c(c1)OCO2 (stereo not given) is less than 50%
no

# strict comparison: is reported viability at 0.031 mg/ml < 50%? input = N#Cc1ccc(N2CCC(NCCC(O)c3ccc(F)c4ccccc34)CC2)c(Br)c1 (stereo not given)
yes

# strict comparison: is reported viability at 0.031 mg/ml < 50%? input = COc1ccccc1C1=CCN(CCC(O)c2ccc(F)c3ccccc23)CC1 (stereo not given)
yes

Could you please tell me whether viability at 0.031 mg/ml recorded for OC(CCN1CCN(C(c2ccccc2)c2ccccc2)CC1)c1ccc(F)c(F)c1 (stereo not given) is less than 50%?
yes

Is viability at 0.031 mg/ml of OC(CCN1CCN(C(c2ccccc2)c2ccccc2)CC1)c1ccc(F)c2ccccc12 (stereo not given) strictly below 50%?
no

# TODO verify viability at 0.031 mg/ml < 50% strictly for this molecule: Nc1ccc(N2CCC(NCCC(O)c3ccc(F)c4ccccc34)CC2)c(C(F)(F)F)c1 (stereo not given)
yes

Lab log: compare recorded viability at 0.031 mg/ml with 50%; is it strictly lower for OC(CCN1CCN(c2ccccc2C(F)(F)F)CC1)c1ccc(F)c2ccccc12 (stereo in doubt; 55) ?
no

Dear reviewer, please state whether N#Cc1ccc(C(O)CCN2CC=C(c3ccc(F)cc3)CC2)cc1 (stereo not given) has viability at 0.031 mg/ml strictly beneath 50%.
no

----------
Test description: Genotoxicity in Salmonella typhimurium TA1535 harboring pSK1002 assessed as survival at 0.031 mg/ml in absence of Sprague-Dawley rat liver S9 fraction after by SOS/umu assay relative to control
Type: toxicity, organism-based
Test settings: salmonella enterica subsp. enterica serovar typhimurium, read-out: Survival
Quantity kind: viability at 0.031 mg/ml (%)
# value in %; strip the unit string

Can you look up the measured viability at 0.031 mg/ml of COc1ccccc1N1CCN(CCC(O)c2ccc(F)c3ccccc23)CC1 (stereo not given) for me?
58.4

Field request: viability at 0.031 mg/ml | item: O=[N+]([O-])c1ccc(N2CCN(CCC(O)c3ccc(F)c4ccccc34)CC2)cc1 (stereo not given)
105

Name the recorded viability at 0.031 mg/ml for COc1ccccc1C1=CCN(CCC(O)c2ccc(F)cc2)CC1 (stereo not given) .
114

Which viability at 0.031 mg/ml is reported for this compound? N#Cc1ccc(N2CCC(NCCC(O)c3ccc(F)c4ccccc34)CC2)c(Cl)c1 (stereo not given)
42.2

Quick one: viability at 0.031 mg/ml for COc1ccccc1N1CCN(CCC(O)c2ccc(F)cc2)CC1 (stereo in doubt; 66) ?
116
